Test system: MT4
Assay: Effective concentration of the compound to inhibit HIV-1 replication in HIV-infected MT-4 cells
Type: functional, cell-based
Conditions: Homo sapiens
Binarize EC50 at 400 nM; below is T, at or above is F.

Known results for molecules:
Molecule: NC(=O)C(Nc1ccc(Cl)cc1)c1c(Cl)cccc1Cl (stereo not drawn)
Test Target: MT4
Cat: F
//
Molecule: COc1ccccc1NC(C(N)=O)c1c(Cl)cccc1Cl (stereo not drawn)
Test Target: MT4
Cat: F
//
Molecule: NC(=O)C(NC(=O)c1ccccc1[N+](=O)[O-])c1c(Cl)cccc1Cl (stereo not drawn)
Test Target: MT4
Cat: F
//
Molecule: NC(=O)C(Nc1ccccc1[N+](=O)[O-])c1c(Cl)cccc1Cl (stereo not drawn)
Test Target: MT4
Cat: T
//
Molecule: CC(C)=CCN1Cc2cc(Cl)cc3[nH]c(=S)n(c23)C[C@@H]1C
Test Target: MT4
Cat: T

Could you now look at the following molecule, please?
# strict comparison: is reported EC50 < 400 nM? input = NC(=O)C(NC(=O)Nc1ccccc1[N+](=O)[O-])c1c(Cl)cccc1Cl (stereo not drawn)
F

* * *

Field: EC50. Provide a value for each of the compounds that follow.
Tested on: MT4
Experiment: Effective concentration of the compound to inhibit HIV-1 replication in HIV-infected MT-4 cells
Assay type: functional, cell-based
Details: Homo sapiens
Numbers only, in nM.

Compound: C=CCN1Cc2cccc3[nH]c(=O)n(c23)CC1C (configuration not stated)
Test Target: MT4
EC50, nM: 62000

Compound: NC(=O)C(/N=C(\S)Nc1ccc(Cl)cc1)c1c(Cl)cccc1Cl (configuration not stated)
Test Target: MT4
EC50, nM: 160

Compound: CC(C)=CCN1Cc2c(Cl)ccc3[nH]c(=S)n(c23)C[C@@H]1C
Test Target: MT4
EC50, nM: 4.6

Give the measured EC50 of NC(=O)C(Nc1ccccc1Cl)c1c(Cl)cccc1Cl (configuration not stated) .
400

* * *

Field: EC50. Provide a value for each of the compounds that follow.
System: MT4
Experiment: Effective concentration of the compound to inhibit HIV-1 replication in HIV-infected MT-4 cells
Type: functional, cell-based
Conditions: Homo sapiens

Example results:
Compound: NC(=O)C(NCc1ccccc1[N+](=O)[O-])c1c(Cl)cccc1Cl (stereo not drawn)
Test Target: MT4
EC50: > 50 µM
//
Compound: N#Cc1ccc(Nc2nc(Cc3c(Cl)cccc3Cl)ns2)cc1
Test Target: MT4
EC50: > 1 µM

Give the measured EC50 of NC(=O)C(/N=C(\S)Nc1ccccc1Cl)c1c(Cl)cccc1Cl (stereo not drawn) .
> 50 µM

Hello, the source for this data is ChEMBL document CHEMBL1142713, in case you need it.
